# Tested on: primary rat microglia
# STATED CONDITIONS: rat
Where a name gives a salt, the structure may show the parent alone.
Record form. Attribute: LPS % cell toxicity. Fill in for each entry.
The response must be a number in % with no trailing unit.

**Query** Suppose we examine the compound `O=C1CN(/N=C/c2ccc([N+](=O)[O-])o2)C(=O)N1` ; what LPS % cell toxicity value has been reported?
**Result** 0

**Query** And for `COc1cccc2c1C(=O)c1c(O)c3c(c(O)c1C2=O)C[C@@](O)(C(C)=O)C[C@@H]3O[C@H]1C[C@H](N)[C@H](O)[C@H](C)O1` ?
**Result** 57

**Query** And for CC(C)NCC(O)COc1cccc2[nH]ccc12 (stereo not drawn) ?
**Result** 1

**Query** And for `Sc1ncnc2nc[nH]c12` ?
**Result** 0

**Query** And for CC(=O)[O-].[Hg+][c]1ccccc1 [Phenylmercuric Acetate] ?
**Result** 80

**Query** And for CC1CCC(C(C)C)C(O)C1 (stereo not drawn) ?
**Result** 0

**Query** And for c1ccc(C2CN3CCSC3=N2)cc1 (stereo not drawn) [Tetramizole Hydrochloride] ?
**Result** 5

**Query** And for `CC(C)(C)NC[C@H](O)COc1ccccc1C1CCCC1` ?
**Result** 0

**Query** And for CC(=O)NC(Cc1ccccc1)C(=O)O (stereo not drawn) ?
**Result** 0

**Query** And for `CN1CCN(C(c2ccccc2)c2ccccc2)CC1` ?
**Result** 1

**Query** And for COc1cc([C@@H]2c3cc4c(cc3[C@@H](O[C@@H]3O[C@@H]5CO[C@@H](C)O[C@H]5[C@H](O)[C@H]3O)[C@H]3COC(=O)[C@H]23)OCO4)cc(OC)c1O [Etoposide] ?
**Result** 0

**Query** And for `CCN(CC)C(=S)SSC(=S)N(CC)CC` ?
**Result** 75

**Query** And for `OC(CCCN1CCCCC1)(c1ccccc1)c1ccccc1` ?
**Result** 0

**Query** And for `O=C(N[C@H](CO)[C@H](O)c1ccc([N+](=O)[O-])cc1)C(Cl)Cl` ?
**Result** 0

**Query** And for CCN(CC)CCOC(=O)C(c1ccccc1)c1ccccc1 [Adiphenine Hydrochloride] ?
**Result** 0

**Query** And for `COc1ccc(CN(CCN(C)C)c2ccccn2)cc1` ?
**Result** 0

**Query** And for `Cc1ncc(CSSCc2cnc(C)c(O)c2CO)c(CO)c1O` ?
**Result** 0

**Query** And for `OC[C@@H](O)[C@@H](O)CO` ?
**Result** 0

**Query** And for `Cc1ccc(N(CC2=NCCN2)c2cccc(O)c2)cc1` ?
**Result** 0

**Query** And for `N[C@@H](COP(=O)(O)O)C(=O)O` ?
**Result** 0

**Query** And for `CN(C)[C@@H]1C(O)=C(C(N)=O)C(=O)[C@@]2(O)C(O)=C3C(=O)c4c(O)cccc4[C@@](C)(O)[C@H]3[C@H](O)[C@@H]12` ?
**Result** 0

**Query** And for CC(C)c1c(CN(C)C(C)Cc2ccccc2)n(C)n(-c2ccccc2)c1=O (stereo not drawn) ?
**Result** 0

**Query** And for O=C1OC2(c3ccccc31)c1cc(I)c(O)c(I)c1Oc1c2cc(I)c(O)c1I [Erythrosine Sodium] ?
**Result** 0

**Query** And for `O=C(CCCCCCC(=O)Nc1ccccc1)NO` ?
**Result** 50

###

# System: primary rat microglia
# PROTOCOL DETAILS: Cell toxicity (dead cells, size <150 μm2) in coated fibrin (cFib) assay;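 further: share of dead cells sized under 150 µm2 at 10 µM in fibrin-stimulated microglia HTS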
# STATED CONDITIONS: primary microglia HTS, fibrin assay, dead cells (size <150 μm2), compounds at 10 μM
Where a name gives a salt, the structure may show the parent alone.
QUANTITY MEASURED: Fibrin % cell toxicity (%)
The response must be a number in % with no trailing unit.

**Query** Suppose we examine the compound `CN(C)CC[C@@H](c1ccc(Br)cc1)c1ccccn1` ; what Fibrin % cell toxicity value has been reported?
**Result** 0

**Query** And for CC(=O)Oc1c(C)cccc1C(=O)O [Cresopyrine, Cresopirine] ?
**Result** 1

**Query** And for CC1=NS(=O)(=O)c2cc(Cl)ccc2N1 [Diazoxide] ?
**Result** 0

**Query** And for C[C@H]1O[C@@H](O[C@H]2[C@@H](O)C[C@H](O[C@H]3[C@@H](O)C[C@H](O[C@H]4CC[C@@]5(C)[C@H](CC[C@@H]6[C@@H]5CC[C@]5(C)[C@@H](C7=CC(=O)OC7)CC[C@]65O)C4)O[C@@H]3C)O[C@@H]2C)C[C@H](O)[C@@H]1O [Digitoxin] ?
**Result** 1

**Query** And for CCCCC(=O)O[C@H]1CC[C@H]2[C@@H]3CCc4cc(O)ccc4[C@H]3CC[C@]12C [Estradiol Valerate] ?
**Result** 1

**Query** And for CC(=O)[C@H]1CC[C@H]2[C@@H]3C=CC4=CC(=O)CC[C@@]4(C)[C@@H]3CC[C@]12C [Dydrogesterone] ?
**Result** 0

**Query** And for O=C1Nc2ccc(Cl)cc2[C@@](C#CC2CC2)(C(F)(F)F)O1 [Efavirenz] ?
**Result** 1

**Query** And for COC(=O)/C=C/C(=O)OC [Dimethyl Fumarate] ?
**Result** 0

**Query** And for C[C@]12CC[C@@H]3c4ccc(O)cc4CC[C@H]3[C@@H]1CC[C@@H]2OC(=O)CCC1CCCC1 [Estradiol Cypionate] ?
**Result** 0

**Query** And for CC(C)c1c(CN(C)C(C)Cc2ccccc2)n(C)n(-c2ccccc2)c1=O (stereo not shown) [Famprofazone] ?
**Result** 1

**Query** And for CCOC(=O)CCC(=O)O[C@H]1[C@H](O[C@@H]2[C@@H](C)[C@H](O[C@H]3C[C@@](C)(OC)[C@@H](O)[C@H](C)O3)[C@@H](C)C(=O)O[C@H](CC)[C@@](C)(O)[C@H](O)[C@@H](C)C(=O)[C@H](C)C[C@@]2(C)O)O[C@H](C)C[C@@H]1N(C)C [Erythromycin Ethylsuccinate] ?
**Result** 0

**Query** And for CCCCOC(=O)c1ccccc1C(=O)OCCCC [Dibutyl Phthalate] ?
**Result** 1

**Query** And for CCOC(=O)c1cncn1[C@H](C)c1ccccc1 [Etomidate] ?
**Result** 0

**Query** And for CC[N+](CC)(CC(=O)Nc1c(C)cccc1C)Cc1ccccc1 [Denatonium Benzoate] ?
**Result** 0

**Query** And for N[C@@H]1CON=C1O [Cycloserine] ?
**Result** 0

**Query** And for CCN(CC)C(=O)/C(C#N)=C/c1cc(O)c(O)c([N+](=O)[O-])c1 [Entacapone] ?
**Result** 1

###

# Test system: primary rat microglia
# PROTOCOL DETAILS: Cell toxicity (dead cells, size <150 μm2) in LPS assay
# STATED CONDITIONS: primary microglia HTS, LPS stimulation; decreased size (<150 μm^2) as marker of toxicity
Counter-ions that a name gives are not always drawn.
Record form. Attribute: LPS % cell toxicity. Fill in for each entry.
The response must be a number in % with no trailing unit.

**Query** Suppose we examine the compound O=C(CCNNC(=O)c1ccncc1)NCc1ccccc1 [Nialamide] ; what LPS % cell toxicity value has been reported?
**Result** 0

**Query** And for `CO[C@@H]1[C@@H](OC(N)=O)[C@@H](O)[C@H](Oc2ccc3c(O)c(NC(=O)c4ccc(O)c(CC=C(C)C)c4)c(=O)oc3c2C)OC1(C)C` ?
**Result** 0

**Query** And for Clc1ccc(C(OCCN2CCCCC2)c2ccccc2)cc1 (stereo not drawn) [Cloperastine hydrochloride, reference compound] ?
**Result** 0

**Query** And for CC(=O)[C@@]12O[C@](C)(c3ccccc3)O[C@@H]1C[C@H]1[C@@H]3CCC4=CC(=O)CC[C@]4(C)[C@H]3CC[C@@]12C [Algestone acetophenide, reference compound] ?
**Result** 2

**Query** And for `CN(C(=O)CN(CCO)CC(=O)N(C)C(C)(C)Cc1ccccc1)C(C)(C)Cc1ccccc1` ?
**Result** 0

**Query** And for `CCn1cc(C(=O)O)c(=O)c2ccc(C)nc21` ?
**Result** 1

**Query** And for NC(=O)c1cc([N+](=O)[O-])cc([N+](=O)[O-])c1 [Nitromide] ?
**Result** 0

**Query** And for Cc1onc(-c2ccccc2)c1C(=O)N[C@@H]1C(=O)N2[C@@H]1SC(C)(C)[C@@H]2C(=O)[O-].[Na+] [Oxacillin Sodium] ?
**Result** 0

**Query** And for CC(C)(CO)C(O)C(=O)NCCCO (stereo not drawn) ?
**Result** 0
